# maps each entry to its melting point
readout: melting point

>>> recorded_measurement("CCOC(=O)c1cc(C(=O)c2ccc(C)cc2)n2c1ccc1cc(C)ccc12")
"155 to 156 °C"
>>> recorded_measurement("CCOC(=O)c1cc(C(=O)c2ccc(Br)cc2)n2c1ccc1cc(C)ccc12")
"180 to 181 °C"
>>> recorded_measurement("CCOC(=O)c1cc(C(=O)c2ccccc2)n2c1ccc1cc(C)ccc12")
"139 to 140 °C"
>>> recorded_measurement("CCOC(=O)c1cc(C(=O)c2cc(C(F)(F)F)cc(C(F)(F)F)c2)n2c1ccc1cc(C)ccc12")
"223 to 224 °C"
>>> recorded_measurement("CCOC(=O)c1cc(C(=O)c2ccccc2[N+](=O)[O-])n2c1ccc1cc(C)ccc12")
"174 to 175 °C"
>>> recorded_measurement("CCOC(=O)c1cc(C(=O)c2ccc(F)cc2)n2c1ccc1cc(C)ccc12")
"163 to 164 °C"
